# assayOverview: physchem
# experimentalConditions: PBS buffer, pH 7.4
# Description: Solubility of the compound in pH 7.4 PBS buffer
Decision: solubility >= 200 µM yields criterion met, all other cases yield criterion not met.

Say whether CCOc1nn2c(c1S(=O)(=O)N1C[C@H](CCC(=O)O)Oc3ccc(/C=C(\C)c4c(F)cccc4Cl)cc31)CCCC2 shows solubility of 200 µM or more. criterion met

Say whether C/C(=C\c1ccc2c(c1)N(S(=O)(=O)c1cccc(OC(F)F)c1)C[C@H](CCC(=O)O)O2)c1c(F)cccc1Cl shows solubility of 200 µM or more. criterion met

Say whether O=C(O)CC[C@H]1CN(S(=O)(=O)c2cccc(C(F)(F)F)c2)c2cc(-c3cc(F)ccc3F)ccc2O1 shows solubility of 200 µM or more. criterion met

Say whether O=C(O)CC[C@H]1CN(S(=O)(=O)c2cccc(C(F)(F)F)c2)c2cc(-c3cc(F)ccc3Cl)ccc2O1 shows solubility of 200 µM or more. criterion met

Say whether O=C(O)CC[C@H]1CN(S(=O)(=O)c2cccc(C(F)(F)F)c2)c2cc(-c3ccc(Cl)cc3)ccc2O1 shows solubility of 200 µM or more. criterion not met

Say whether O=C(O)C1(C[C@H]2CN(S(=O)(=O)c3cccc(C(F)(F)F)c3)c3cc(-c4cccc(Cl)c4F)ccc3O2)CCOCC1 shows solubility of 200 µM or more. criterion not met

Say whether C/C(=C\c1ccc2c(c1)N(S(=O)(=O)c1ccc(F)c(C3CC3)c1)C[C@H](CCC(=O)O)O2)c1c(F)cccc1Cl shows solubility of 200 µM or more. criterion met
